Where do the numbers come from? From PubChem BioAssay (NCI).

Test system: K-562 leukemia
Assay: NCI tumour cell line growth inhibition, 48 h
Outcome measure: GI50

Request: Any idea what GI50 came out for "CS(=O)(=O)OCCCCOS(C)(=O)=O" on K-562 leukemia?
Result: 795 µM

Request: And "O=c1[nH]ccc2nc(N3CCC(O)CC3)nc(Nc3ccc(N4CCOCC4)cc3)c12" ?
Result: > 100 µM

Request: And "COc1ccccc1CN=C1NC(=O)/C(=C/c2ccc3ncccc3c2)S1" ?
Result: 8.4 µM

Request: And "N=C(N)c1ccc(CS(=O)(=O)F)cc1" ?
Result: > 100 µM

Request: And "C/C(=N\NC(=O)c1cccc(S(=O)(=O)N2CCN(C)CC2)c1)c1cc(Cl)ccc1O" ?
Result: 0.824 µM

Request: And "O=c1ncc(I)c[nH]1" ?
Result: > 100 µM

Request: And "C=C(C)[C@@H]1CC[C@]2(C(=O)N3CCN(C)CC3)CC[C@]3(C)[C@H](CC[C@@H]4[C@@]5(C)C/C(=C/c6ccncc6)[C@H](O)C(C)(C)[C@@H]5CC[C@]43C)[C@@H]12" ?
Result: 2.79 µM

###

System: CAKI-1 renal
Experiment: NCI tumour cell line growth inhibition, 48 h
For each of the compounds below, state its TGI.

Request: Could you share which TGI value was measured for "CC1(C)CC(=O)c2c([nH]c(=S)c(C#N)c2-c2ccc(Br)cc2)C1" ?
Result: > 100 µM

Request: And "COc1ccc(Nc2[nH]n(C3=Nc4ccccc4Sc4ccccc43)c(=O)c2C#N)cc1" ?
Result: 1.57 µM

Request: And "Oc1ccccc1/C=N/Nc1nc2ccccc2s1" ?
Result: > 100 µM

Request: And O=C1CC(c2ccccc2)NCCCCN2CC(CN1)C(C(O)c1ccccc1)C2=O (centres undefined) ?
Result: > 100 µM

Request: And "CC[C@]12C=CCN3CC[C@@]4(c5ccc(OC)cc5N(C)[C@H]4[C@@](O)(C(=O)OC)[C@@H]1OC(=O)CCCC[P+](c1ccccc1)(c1ccccc1)c1ccccc1)[C@@H]32" ?
Result: 13.7 µM

Request: And "Nc1nc(N)c2c(CCc3ccc(C(=O)N[C@@H](CCC(=O)O)C(=O)O)cc3)ccnc2n1" ?
Result: > 100 µM

Request: And Cc1cccc(C)c1NC(=O)C(=O)C(c1ccccc1Cl)S(=O)(=O)Cc1ccccc1Cl (centres undefined) ?
Result: > 100 µM

Request: And "O=c1oc2cc(O)ccc2c(O)c1C(c1ccc2ccccc2c1)c1c(O)c2ccc(O)cc2oc1=O" ?
Result: > 100 µM

Request: And "CCCCCCCCCCCCCCCCSS(C)(=O)=O" ?
Result: 26.1 µM

###

Test system: T-47D breast
Assay: NCI tumour cell line growth inhibition, 48 h; in the data active means GI50 below about 0.43 µM; inactive means the rest
Hi! Could you answer with just one of these? active, inactive

Request: State the result this test recorded for "CS(=O)(=O)c1nccc(-c2c(-c3cccc(OCc4ccccc4)c3)nc3sccn23)n1" .
Result: inactive

Request: And "C=C(C)[C@@H]1CC[C@]2(C(=O)N3CCN(C)CC3)CC[C@]3(C)[C@H](CC[C@@H]4[C@@]5(C)C/C(=C/c6ccncc6)[C@H](O)C(C)(C)[C@@H]5CC[C@]43C)[C@@H]12" ?
Result: inactive

Request: And "Cc1ccccc1NC(=O)N/C(N)=N/c1nc(C)c(C)s1" ?
Result: inactive

Request: And "C=C(c1ccc(OC)c(/C=C/C(=O)c2cc(OC)c(OC)c(OC)c2)c1)c1cc(OC)c(OC)c(OC)c1" ?
Result: inactive

Request: And "COc1cc(-c2nn(-c3ccc(NC(=O)Nc4ccc(Cl)c(C(F)(F)F)c4)cc3)cc2-c2ccncc2)ccc1Cl" ?
Result: inactive

Request: And "COc1ccc2c(c1)O/C(=C\c1ccc([N+](=O)[O-])o1)C2=O" ?
Result: inactive

Request: And "C[C@@]1([C@H](OC(=O)c2cccc3ccccc23)C(N)=O)CO1" ?
Result: inactive

Request: And "O=c1ncc(I)c[nH]1" ?
Result: inactive

Request: And "CC[C@]12C=CCN3CC[C@@]4(c5ccc(OC)cc5N(C)[C@H]4[C@@](O)(C(=O)OC)[C@@H]1OC(=O)CCCC[P+](c1ccccc1)(c1ccccc1)c1ccccc1)[C@@H]32" ?
Result: active

Request: And "Oc1ccccc1/C=N/Nc1nc2ccccc2s1" ?
Result: inactive

Request: And "O=C1c2cccc3c([N+](=O)[O-])ccc(c23)C(=O)N1CCCCl" ?
Result: inactive

Request: And "COc1ccc(-c2cnc(SCC(=O)c3c(C)n(C)n(-c4ccccc4)c3=O)n2-c2ccc(OC)cc2)cc1" ?
Result: inactive

###

System: SNB-75 CNS
Test: NCI tumour cell line growth inhibition, 48 h; in the data active means GI50 below about 0.43 µM; inactive means the rest
Hi! Could you answer with just one of these? true (1) (active), false (0) (inactive)

Request: State the result this test recorded for "O=c1[nH]ccc2nc(N3CCC(O)CC3)nc(Nc3ccc(N4CCOCC4)cc3)c12" .
Result: false (0)

Request: And "CS(=O)(=O)c1nccc(-c2c(-c3cccc(OCc4ccccc4)c3)nc3sccn23)n1" ?
Result: false (0)

Request: And "COc1ccccc1CN=C1NC(=O)/C(=C/c2ccc3ncccc3c2)S1" ?
Result: false (0)

Request: And "C/C(=N\NC(=O)c1cccc(S(=O)(=O)N2CCN(C)CC2)c1)c1cc(Cl)ccc1O" ?
Result: false (0)

Request: And "C=C(c1ccc(OC)c(/C=C/C(=O)c2cc(OC)c(OC)c(OC)c2)c1)c1cc(OC)c(OC)c(OC)c1" ?
Result: false (0)

Request: And "CCCCCCCC(=O)SCC/C=C/[C@@H]1CC(=O)NCc2cccc(n2)C2=N[C@@](C)(CS2)C(=O)N[C@@H](C(C)C)C(=O)O1" ?
Result: true (1)

###

Test system: NCI-H226 lung
Assay: NCI tumour cell line growth inhibition, 48 h
Please mark true if the recorded TGI is equal to or greater than 20 µM, and false if it falls below.

Request: Check this compound for TGI at or above 20 µM: "COc1ccc(-c2cnc(SCC(=O)c3c(C)n(C)n(-c4ccccc4)c3=O)n2-c2ccc(OC)cc2)cc1"
Result: true

Request: And "C=C(c1ccccc1)[C@@]1(O)CCCC[C@H]1NC(c1ccccc1)c1ccccc1" ?
Result: true

Request: And "COc1ccc2c(c1)[n+]([O-])c(/C(C)=N/NC(N)=S)c(C)[n+]2[O-]" ?
Result: true

Request: And CC(C)C(C)C(O)C(O)C(C)C1CCC2C3COC(=O)C4CC(O)C(O)CC4(C)C3CCC12C (stereo not given) ?
Result: true

Request: And "CSc1ccc(/C=C/C(=O)c2nc3ccccc3[nH]2)cc1" ?
Result: true

Request: And "CC(/C=C/c1ccccc1)=N\N=C(C)\C=C\c1ccccc1" ?
Result: true

Request: And "O=S1(=O)OCc2ccccc21" ?
Result: true

Request: And "O=C(c1ccc(-c2ccccc2)cc1)N(Cc1cccnc1)C(=S)N(Cc1cccnc1)C(=O)c1ccc(-c2ccccc2)cc1" ?
Result: true

Request: And "Cc1cc(N2CCCCC2)nc(NCc2cc(Nc3ccnc4cc(Cl)ccc34)ccc2F)n1" ?
Result: false

Request: And NC(CCCNc1ccc(O)cc1)C(=O)O (stereo not given) ?
Result: true

Request: And "COc1c(N2CCCCC2)c2c(=O)c3ccccc3oc2c2cc(C)oc12" ?
Result: true

Request: And "COc1ccc(Nc2[nH]n(C3=Nc4ccccc4Sc4ccccc43)c(=O)c2C#N)cc1" ?
Result: false

Request: And "CCOc1cccc2sc(N)nc12" ?
Result: true

Request: And "O=[N+]([O-])c1ccc(CSc2c3ccccc3nc3ccccc23)cc1" ?
Result: true

Request: And COc1cc(/C=C/C(=O)c2ccc(F)cc2)ccc1OCCCCOc1cc2c(cc1OC)C(=O)N1CCCC1C=N2 (stereo not given) ?
Result: false

Request: And "Nc1c(C(=O)c2ccc(Cl)cc2)[nH]c(Nc2ccc(Cl)cc2)c1C(=S)Nc1ccccc1" ?
Result: false

Request: And "CCCCCCN(CCCCCC)C1=CC(=O)C(=O)c2ccccc21" ?
Result: true

Request: And CSC1=C(C(=O)N(COCC[Si](C)(C)C)c2ccccc2Br)CCC(C(C)(C)C)C1 (stereo not given) ?
Result: true

###

Test system: UACC-257 melanoma
Test: NCI tumour cell line growth inhibition, 48 h
Outcome measure: GI50

Request: Any idea what GI50 came out for "CS(=O)(=O)OCCCCOS(C)(=O)=O" on UACC-257 melanoma?
Result: 571 µM

Request: And "COc1cc2c(cc1OCCCOc1cc3c(cc1OC)C(=O)N1CC(F)(F)C[C@H]1C=N3)N=C[C@@H]1CC(F)(F)CN1C2=O" ?
Result: 2 µM

Request: And "C=C(C)[C@@H]1CC[C@]2(C(=O)N3CCN(C)CC3)CC[C@]3(C)[C@H](CC[C@@H]4[C@@]5(C)C/C(=C/c6ccncc6)[C@H](O)C(C)(C)[C@@H]5CC[C@]43C)[C@@H]12" ?
Result: 5.45 µM

Request: And "CN(C)c1ccc(/C=N/NC(=O)CSc2nc3sc4c(c3c(=O)n2-c2ccccc2)CCCCC4)cc1" ?
Result: > 100 µM

Request: And "Cc1cc(NCCCNc2ccnc3cc(Cl)ccc23)nc(Nc2ccc(C(=O)N3CCCCC3)cc2)n1" ?
Result: 2.39 µM

Request: And "O=C1c2cccc3c([N+](=O)[O-])ccc(c23)C(=O)N1CCCCl" ?
Result: 7.14 µM

Request: And "N=C(N)c1ccc(CS(=O)(=O)F)cc1" ?
Result: > 100 µM

Request: And Cc1c(C)n(CC(O)CNC2CCCCC2C)c2ccccc12 (stereo not drawn) ?
Result: 16.2 µM
